- Test system: HCT-15 colon
- procedureText: NCI-60 one-dose screen, 48 h
- conditionContext: 10 µM unless noted
- Description: Growth inhibition of the HCT-15 human tumor cell line is measured as a screen for anti-cancer activity. Cells are grown in 96 well plates and exposed to the test compound for 48 hours. Compounds are tested at a single concentration, which is 10^-5 M for most compounds. The reported endpoint is percent growth (GI% or GIPRCNT), where numbers from 0 - 100% represent growth inhibition, and numbers from -100% - 0 represent cell death. For example, a value of 40 represents 60% growth inhibition. […]
About 83,000 compounds went through this panel and 20% of them were active in at least one assay; those are over-represented in the sample as a whole. Calls of active or inactive are those of the source. Rule for the calls: active = growth percent below 10; inactive = the rest.
Pick one and only one: Y (active), N (inactive)

q: Per the records of this test, what outcome belongs to C=C1CC[C@@H]2[C@]3(C)COC(c4cn[nH]c4-c4ccc(F)cc4)O[C@@H]3CC[C@@]2(C)[C@@H]1C/C=C1/C(=O)OCC1O (some centres undefined) ?
a: Y

q: Per the records of this test, what outcome belongs to Cc1ccc([C@H]2C(C(=O)c3ccc(Cl)cc3)C3(N[C@@H]2c2ccccc2)C(=O)Nc2ccccc23)cc1 (some centres undefined) ?
a: N

q: Per the records of this test, what outcome belongs to CC(=O)OC[C@@]1(C)C2CC[C@]3(C)C(CC=C4C5CC(C)(C)CC[C@]5(C(=O)Nc5cccc(C)c5)CC[C@]43C)[C@@]2(C)C[C@@H](OC(C)=O)[C@@H]1OC(C)=O (some centres undefined) ?
a: N

q: Per the records of this test, what outcome belongs to `COc1ccc2c(c1)c(-c1cc(N)n3nc(-c4cn(C)c5ccccc45)cc3n1)cn2C` ?
a: Y

---

- Test system: MOLT-4 leukemia
- procedureText: NCI-60 one-dose screen, 48 h
- conditionContext: 10 µM unless noted
This is part of a sample that, as a whole, favours compounds with a hit. Of some 83,000 tested, about 20% had one in any assay. Calls of active or inactive are those of the source. How the source made its calls: active means growth percent below 10; inactive means the rest.
Pick one and only one: TRUE for active, FALSE for inactive

q: Per the records of this test, what outcome belongs to COc1ccc(NC(=O)[C@@H](N)Cc2ccccc2)cc1C(=O)Nc1cccc(C2CC(=O)c3c(cc(OC)c(OC)c3OC)O2)c1 (stereo partly specified) ?
a: FALSE

q: Per the records of this test, what outcome belongs to `CNC(=O)c1cccc(NC(=O)c2ccc3c(c2)nnn3/C(C#N)=C/c2ccccn2)c1` ?
a: TRUE

q: Per the records of this test, what outcome belongs to `COc1cc(OC)c2c3nc4cc(C)c(C)cc4nc3n(CCN(C)C)c2c1` ?
a: FALSE

q: Per the records of this test, what outcome belongs to `CN1CCN(/C(=N\c2sc(-c3ccccc3)nc2-c2ccccc2)c2ccccc2)CC1` ?
a: FALSE

q: Per the records of this test, what outcome belongs to `Cn1cc(-c2cc3nc(-c4cn(C)c5ncccc45)cc(N)n3n2)c2ccccc21` ?
a: TRUE

q: Per the records of this test, what outcome belongs to `Cc1cccc(Nc2nc3ccccc3nc2/C=C/c2ccc(F)cc2)c1` ?
a: FALSE

q: Per the records of this test, what outcome belongs to COc1cc2c(c(OC)c1OC)C(=O)CC(c1cccc(NC(=O)c3cccc([N+](=O)[O-])c3)c1)O2 (stereo unspecified) ?
a: FALSE

q: Per the records of this test, what outcome belongs to `Cc1cc(=O)oc2cc(OCCOc3ccc(/C=C/C(=O)Nc4ccccc4N)cc3)ccc12` ?
a: TRUE

q: Per the records of this test, what outcome belongs to `S=C(NCCc1ccccc1)Nc1ccc(OCc2nc3ccccc3[nH]2)cc1` ?
a: FALSE

q: Per the records of this test, what outcome belongs to C=C1CC[C@@H]2[C@]3(C)COC(c4ccccc4)O[C@@H]3CC[C@@]2(C)[C@@H]1C/C=C1/C(=O)OCC1OC(C)=O (stereo partly specified) ?
a: TRUE

q: Per the records of this test, what outcome belongs to `Cc1ccc(-c2nc(C#N)c(S(=O)(=O)N3CCN(S(=O)(=O)c4ccccc4)CC3)o2)cc1` ?
a: TRUE

q: Per the records of this test, what outcome belongs to `O=C(Cn1c(/C=C/c2ccccc2)nc2ccccc2c1=O)Nc1ccc(Cl)cc1` ?
a: FALSE

q: Per the records of this test, what outcome belongs to `COc1cc2oc(-c3cccc(C(=O)Nc4ccc(Cl)cc4)c3)cc(=O)c2c(OCCNC(=O)[C@@H](N)CCC(=O)O)c1OC` ?
a: FALSE

q: Per the records of this test, what outcome belongs to CCCn1cc(-c2nc(Nc3ccc(C(=O)NCCCCNc4cccc5c4C(=O)N(C4CCC(=O)NC4=O)C5=O)cc3)nc3[nH]ccc23)cn1 (stereo unspecified) ?
a: TRUE

q: Per the records of this test, what outcome belongs to `COc1ccc(C(=O)/C=C/c2ccc(OC)c(OCc3ccccc3)c2)cc1OC` ?
a: TRUE

q: Per the records of this test, what outcome belongs to `O=C(/C=C/c1ccc(-c2ccccc2)cc1)c1nc2ccccc2n1Cc1ccc(F)cc1` ?
a: TRUE

q: Per the records of this test, what outcome belongs to COCOc1cc2c(=O)c(C)c(C(=O)N[C@@H](Cc3ccccc3)C(O)C(=O)NCc3ccccc3)oc2cc1OC (stereo partly specified) ?
a: FALSE

q: Per the records of this test, what outcome belongs to `S=c1c2ccccc2nc2n1CCc1c-2[nH]c2ccccc12` ?
a: FALSE

q: Per the records of this test, what outcome belongs to COc1ccc(N2N=C(c3ccc4c(c3)OCO4)CC2c2cccc(NC(=O)CCCNS(=O)(=O)c3ccc(F)cc3)c2)cc1 (stereo unspecified) ?
a: FALSE

q: Per the records of this test, what outcome belongs to `COc1cc2nc(SCc3ccccc3)n(-c3ccc(Cl)cc3)c(=O)c2cc1OC` ?
a: FALSE

q: Per the records of this test, what outcome belongs to `N#Cc1c(-c2ccccc2Cl)cc(-c2ccc3ccccc3c2)[nH]c1=O` ?
a: FALSE

q: Per the records of this test, what outcome belongs to `CCOc1ccc(C(=O)NC(=S)Nc2ccc(S(N)(=O)=O)cc2)cc1` ?
a: FALSE

q: Per the records of this test, what outcome belongs to `CCCCSc1nc(NCCc2c[nH]c3ccccc23)c(C#N)c(-c2ccccc2)n1` ?
a: FALSE

q: Per the records of this test, what outcome belongs to `COc1cc(CNC(=O)/C=C/c2ccc3c(c2)OCO3)ccc1OCc1cn(-c2ccc([N+](=O)[O-])cc2)nn1` ?
a: FALSE

q: Per the records of this test, what outcome belongs to `CCOc1ccc(-c2c(C#N)c(-c3ccc(Cl)cc3)nc3n[nH]c(-c4ccc(Cl)cc4)c23)cc1OC` ?
a: TRUE

q: Per the records of this test, what outcome belongs to `CN(C)c1nc(NCCNS(=O)(=O)c2ccc(C(=O)/C=C/c3ccc(C(F)(F)F)cc3)cc2)nc(Nc2ccc(F)cc2)n1` ?
a: TRUE

q: Per the records of this test, what outcome belongs to `CCN(CC)c1ccnc(CNCCSC(c2ccccc2)(c2ccccc2)c2ccc(C)cc2)c1` ?
a: TRUE

q: Per the records of this test, what outcome belongs to `COc1ccc(C(=O)/C=C/c2ccc(Oc3nc(Nc4ccc(F)cc4)nc(N(C)C)n3)c(OC)c2)cc1` ?
a: FALSE

q: Per the records of this test, what outcome belongs to COc1c(F)ccc(C(=O)Nc2ccc3nc(NC(=O)C4CCCN(S(=O)(=O)c5cccc(Br)c5)C4)sc3c2)c1F (stereo unspecified) ?
a: FALSE

q: Per the records of this test, what outcome belongs to `O=C(Nc1cccc(-n2cnc3cc(-c4ccc(O)cc4)ccc32)c1)C1CC1` ?
a: FALSE

q: Per the records of this test, what outcome belongs to `CCOC(=O)c1ccc(Nc2nc(NN)nc(-c3ccc(F)cc3)c2C#N)cc1` ?
a: FALSE

q: Per the records of this test, what outcome belongs to C=C1CC[C@@H]2[C@]3(C)COC(c4cn[nH]c4-c4ccc(Br)cc4)O[C@@H]3CC[C@@]2(C)[C@@H]1C/C=C1/C(=O)OCC1O (stereo partly specified) ?
a: TRUE

q: Per the records of this test, what outcome belongs to `O=C(COc1ccc(NC(=O)Nc2ccc(Cl)cc2)cc1)N/N=C/c1ccccc1` ?
a: TRUE

q: Per the records of this test, what outcome belongs to `O=C(NN1C(=O)/C(=C/C=C/c2ccc([N+](=O)[O-])o2)SC1=S)c1ccc(Cl)cc1` ?
a: TRUE

q: Per the records of this test, what outcome belongs to `O=c1c2ccccc2nc(-c2ccccc2)n1/N=C/c1ccc2ccccc2c1` ?
a: FALSE

q: Per the records of this test, what outcome belongs to `O=C(Cn1c2c(sc1=O)[C@H]1[C@@H](O)[C@@H](O)[C@H](O)[C@@H]1CS2)N1CCOCC1` ?
a: FALSE
